Data origin, for the record: ChEMBL document CHEMBL4296182

Please respond with reported Inhibition for every item in the list.
# System: Klebsiella pneumoniae
# test_settings: Concentration 20 uM; ASSAY_TEST Inhibition of Bacterial Growth; detection method Absorption (OD600); MEDIA CAMHB; plate type 384well; NBS; CORNING #3640; time 18 hr
# Description: Antibacterial activity against Klebsiella pneumoniae MDR ATCC 70063 (CO-ADD:GN_003); MIC in CAMBH media using NBS plates, by OD(600)
Measured potencies and affinities stand elsewhere.
// note: answer is a bare numeric in %

Query: Item Cn1c(C(=O)c2ccncc2)cc2ccccc21 has what recorded Inhibition?
Response: 4.66

Query: For C=C(C)CN1C(=O)C(C)S/C1=N/N=C1/SCC(=O)N1C (stereo not drawn) , what is its reported Inhibition?
Response: 14.62

Query: Request the reported Inhibition associated with CCCCCOc1ccc(N2C(=O)C(C)CNC2=S)cc1 (stereo not drawn)
Response: 9.59

Query: Fill in: Inhibition of Nc1ccc(C(=O)Nc2ccc(NC(=O)c3ccco3)c(O)c2)cc1 is ___
Response: 17.4

Query: May I ask what Inhibition has been recorded for CCNc1nn2ccccc2c1/C=C(/C#N)C(=O)OCC ?
Response: 11.76

Query: Entry C[C@@]1(c2ccccc2)O[C@@H]2C[C@H]3[C@@H]4CCC5=CC(=O)C=C[C@]5(C)[C@@]4(F)[C@@H](O)C[C@]3(C)[C@]2(C(=O)CO)O1 [AMCINAFIDE] has what Inhibition?
Response: 3.86

Query: Could you share which Inhibition value was measured for COC(=O)C1=C(C)NC(C)=C(C(=O)OC)C(N2C(=O)CCC2=O)C1 (stereo not drawn) ?
Response: 9.26

Query: Need Inhibition, item O=c1c(O)cccc2cc(O)c(O)c(O)c12
Response: 21.3

Query: Entry Cc1ccc(/N=N/c2ccc(C)cc2NC(=O)Nc2ccccc2F)cc1 : reported Inhibition = ?
Response: 9.05

Query: Any idea what its Inhibition is? The compound is OCc1cc(O)c(CO)nn1
Response: 4.1

Query: Form field: reported Inhibition of O=C(NN1CCCCC1)NN1CCCCC1
Response: -4.05

Query: Which Inhibition is listed for O=C(Nc1cccc2c1N(C(=O)c1ccco1)CCC2)c1ccco1 ?
Response: 13.8

Query: Inhibition lookup needed for CC1(C)CC(Nc2ccc(Nc3ccccc3)cc2)CC(C)(C)N1 , thanks.
Response: 10.49

Query: // lookup Inhibition for Nc1nc(S)c2ncn(C3CCCC3)c2n1
Response: 18.77

Query: Recorded Inhibition of O=C1OC(CN(Cc2ccccc2)Cc2ccccc2)CN1/N=C/c1ccc([N+](=O)[O-])o1 (stereo not drawn) , please.
Response: 6.15

Query: Could you tell me which Inhibition is on file for COc1c(NC=O)c2c(c([N+](=O)[O-])c1OC)C(=O)OC2 ?
Response: 24.74

Query: I am curious: what Inhibition value has been reported for Cc1ccccc1N=C(S)Nc1ccccn1 ?
Response: 16.17

Query: Fill in: Inhibition of O=C(Nc1ccc(Nc2ccccc2)cc1)Nc1ccccc1Cl is ___
Response: 12.39

Query: // lookup Inhibition for O=C(Cn1nnc(N2CCCCC2)n1)N/N=C/c1ccccc1O
Response: 2.1

Query: Quick check: Inhibition of CCCc1nc(NC(=O)c2ccccc2)nc(NC(=O)c2ccccc2)n1 ?
Response: 10.41

Query: Which Inhibition is listed for Cc1ccc(-c2cc(C(=O)O)c3ccccc3n2)c(C)c1 ?
Response: 18.95

Query: Which Inhibition is listed for Cc1cc(=O)oc2cc(OS(C)(=O)=O)ccc12 ?
Response: 7.19

Query: Dear colleague, I am looking for the recorded Inhibition of the following compound: NC(=O)c1ccc(Cl)c2ccccc12
Response: 7.47

Query: I would be grateful if you could share the reported Inhibition for Nc1nc(SCc2ccccn2)c2ncn(C3OC(CO)C(O)C3O)c2n1 (stereo not drawn) .
Response: 10.89

Query: Fill in the blank: the reported Inhibition of OCc1ncccc1O is ____.
Response: 25.51

Query: // Inhibition lookup, key: CCOC(=O)C1CC(C)=C(C)CC1C(=O)O (stereo not drawn)
Response: 7.81

Query: What Inhibition value was documented for this compound, COc1ccc(-c2cc(-c3ccccc3)c(-c3ccccc3)nn2)cc1 ?
Response: -1.34

Query: Given the entry COc1c(O)ccc2c1CN1CCc3cc4c(cc3C1C2)OCO4 (stereo not drawn) , report its measured Inhibition.
Response: 10.21

Query: What measured Inhibition goes with O=C(Cn1ccc(=O)[nH]c1=O)Nc1ccc(C(=O)O)c(O)c1 ?
Response: 11.75

Query: Recorded Inhibition for NC1=NC(c2ccc(Cl)cc2)N(c2ccc(S(N)(=O)=O)cc2)C(N)=N1 (stereo not drawn) , please?
Response: 8.28

Query: Given FC(F)(F)c1cccc(-c2nc3nc(Cl)c(Cl)nc3[nH]2)c1 , state its recorded Inhibition.
Response: 6.13

Query: What value of measured Inhibition is listed for Cc1nc(S)nc(O)c1Cc1c(O)ccc2ccccc12 ?
Response: 6.39

Query: For Cc1n[nH]c2c([N+](=O)[O-])c(=O)[nH]c(=O)n12 , what is its reported Inhibition?
Response: 7.43

Query: Data request, read-out Inhibition, for Nc1n[nH]c(-c2ccccc2)n1
Response: 8.63

Query: Which Inhibition is reported for this compound? Nc1ccc(-c2nc3nc(N)nc(N)c3nc2-c2ccc(N)cc2)cc1
Response: 5.53

Query: Quick one: Inhibition for CCOC(=O)c1cc2c(OC)c(OC)ccc2c2ncc(C#N)c(O)c12 ?
Response: 0.73

Query: Fill blank: measured Inhibition of the compound O=C(Nc1nnc(C(F)(F)F)s1)c1c(F)cccc1F is ____.
Response: 14.22

Query: // Inhibition lookup, key: Cc1cc(N2CCN(C)CC2)n2nc(-c3ccc(Cl)cc3)nc2n1
Response: 20.83

Query: Quick one: Inhibition for Cc1cccc(C)c1NC(=O)Nc1ccc(S(N)(=O)=O)cc1 ?
Response: 5.63

Query: Fill blank: measured Inhibition of the compound O=C(Nc1ccccc1)Nc1ccccn1 is ____.
Response: 12.38

Query: Fill in the blank: the reported Inhibition of O=C1C2C3C=CC(CC3)C2S(=O)(=O)C2C3C=CC(CC3)C12 (stereo not drawn) is ____.
Response: 7.08

Query: Given Cn1c(=O)c2nc(N3CCCCC3)[nH]c2n(C)c1=O , state its recorded Inhibition.
Response: 1.37

Query: # Inhibition lookup, item Cn1c2c(c(=O)n(C)c1=O)NC1(N2)C(=O)Nc2ccccc21 (stereo not drawn)
Response: 1.11

Query: Quick check: Inhibition of Cl.Nc1ncnc2c(C3OC(CO)C(O)C3O)c[nH]c12 (stereo not drawn) ?
Response: 9.96

Query: Please look up its Inhibition: C(=C\CSc1ccccn1)/CSc1ccccn1
Response: 8.71

Query: Look up Inhibition for this compound: O=S1(=O)CSCS(=O)(=O)C1
Response: 0.72

Query: Returns the measured Inhibition for the input compound. Input: Nc1ncncc1-c1ccc2ccccc2c1
Response: 17.13

Query: Dear colleague, I am looking for the recorded Inhibition of the following compound: c1ccc2nc(NN=C3CCCCC3)ccc2c1
Response: 9.11
